# Tested on: U2OS
# EXPERIMENT_DESCRIPTION: Multiplex assay against U2OS
# Format: toxicity, cell-based
# MEASUREMENT_CONDITIONS: human, 24 h, 10 µM, compound concentration 10 uM, replicate 2
Please provide measured Population Apoptotic (%) for the entries that follow.
Answers are plain numbers, in %.

Consider the compound Cc1ccc(S(=O)(=O)NC2c3ccccc3Oc3ccccc32)cc1 and give its measured Population Apoptotic (%).
100

Consider the compound C[C@@H](Oc1cc(-n2cnc3ccc(CN4CCN(C)CC4)cc32)sc1C(N)=O)c1ccccc1C(F)(F)F and give its measured Population Apoptotic (%).
82

Consider the compound C=CC(=O)Nc1cc(-n2c(=O)ccc3cnc4ccc(-c5ccc(NS(C)(=O)=O)cc5)cc4c32)ccc1C and give its measured Population Apoptotic (%).
84

Consider the compound CC[C@@]1(O)C(=O)OCc2c1cc1n(c2=O)Cc2cc3ccccc3nc2-1 and give its measured Population Apoptotic (%).
90

Consider the compound CCOC(=O)CCNc1cc(N2CCc3ccccc3CC2)nc(-c2ccccn2)n1 and give its measured Population Apoptotic (%).
81

Consider the compound CCCc1cc(C)[nH]c(=O)c1CNC(=O)c1cc(-c2ccc(N3CCN(C(C)C)CC3)nc2)cc2c1cnn2C(C)C and give its measured Population Apoptotic (%).
91

List Population Apoptotic (%) for every entry below, keeping the order given.
1. Cc1c(P(=S)(c2ccccc2)c2ccccc2)n2ccccc2[n+]1C/C=C/c1ccccc1.[Br-]
2. N#CCNC(=O)c1ccc(-c2ccnc(Nc3ccc(N4CCOCC4)cc3)n2)cc1

100
45

---

# System: HEK-293T
# EXPERIMENT_DESCRIPTION: Multiplex assay against HEK293T
# Assay type: toxicity, cell-based
# MEASUREMENT_CONDITIONS: human, 24 h, 10 µM, compound concentration 10 uM, replicate 2
MEASUREMENT_TYPE: Population Fragmented Nuclei (%)
Answer as a quantity: numeral, then unit.

Value wanted: Population Fragmented Nuclei (%) (HEK-293T) of entry CC[C@H](Nc1ncnc2[nH]cnc12)c1nc2cccc(F)c2c(=O)n1-c1ccccc1 [IDELALISIB]
29%

List Population Fragmented Nuclei (%) for every entry below, keeping the order given.
1. CCCCCNC(=N)N/N=C/c1c[nH]c2ccc(OC)cc12.O=C(O)/C=C\C(=O)O [TEGASEROD MALEATE]
2. CCOC(=O)CCNc1cc(N2CCc3ccccc3CC2)nc(-c2ccccn2)n1
3. CCCCN(CC)c1nc(C)nc2c1c(C)cn2-c1c(C)cc(C)cc1C.Cl
4. Cc1ccc(NC(=O)Nc2cc(C(F)(F)F)ccc2F)cc1Nc1ccc2c(c1)NC(=O)/C2=C\c1ccc[nH]1
5. Cc1c(P(=S)(c2ccccc2)c2ccccc2)n2ccccc2[n+]1C/C=C/c1ccccc1.[Br-]
6. CCCc1cc(C)[nH]c(=O)c1CNC(=O)c1cc(-c2ccc(N3CCN(C(C)C)CC3)nc2)cc2c1cnn2C(C)C
7. Cl.Cn1c2c(c3ccc(Cl)c(Cl)c31)C(C#N)C1(CCNCC1)NC2=O (stereo not drawn)
8. CN(c1cc(C(F)(F)F)nc(OCCC(=O)O)n1)c1cccc2c1CCC2

1: 25%; 2: 4%; 3: 4%; 4: 18%; 5: 12%; 6: 4%; 7: 5%; 8: 2%

List Population Fragmented Nuclei (%) for every entry below, keeping the order given.
1. N#Cc1cccc(C(=O)Nc2cc(-c3ccccc3)nn2-c2ccccc2)c1
2. CC[C@@]1(O)C(=O)OCc2c1cc1n(c2=O)Cc2cc3ccccc3nc2-1 [CAMPTOTHECIN]

["5%", "8%"]

List Population Fragmented Nuclei (%) for every entry below, keeping the order given.
1. NC(=O)c1ccc2nc(-c3ccc(C4(N)CCC4)cc3)c(-c3ccccc3)n2n1 [BAY-1125976]
2. CC(C)c1cc(Nc2nc(N3CCC[C@H](N)C3)ncc2C(N)=O)cc(C(C)C)n1
3. c1ccc(-c2oc3ncnc(NC[C@@H]4CCCO4)c3c2-c2ccccc2)cc1
4. CN1C(=O)[C@@H](NC(=O)c2cc3ccccc3[nH]2)N=C(c2ccccc2)c2ccccc21 [DEVAZEPIDE]
5. Cl.NC[C@@H]1O[C@H](C23CC4CC(CC(C4)C2)C3)Cc2c1ccc(O)c2O
6. Cc1ccc(S(=O)(=O)NC2c3ccccc3Oc3ccccc32)cc1

23%
11%
2%
7%
9%
11%

Value wanted: Population Fragmented Nuclei (%) (HEK-293T) of entry CC(Cc1ccc(O)c(O)c1)C(C)Cc1ccc(O)c(O)c1 (stereo not drawn) [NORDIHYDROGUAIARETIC ACID]
8%

---

# Tested on: HEK-293T
# EXPERIMENT_DESCRIPTION: Multiplex assay against HEK293T
# Assay type: toxicity, cell-based
# MEASUREMENT_CONDITIONS: human, 48 h, 10 µM, compound concentration 10 uM, replicate 2
Please provide measured Population Healthy Nuclei (%) for the entries that follow.
Answers are plain numbers, in %.

Reference set, count: 3
Consider the compound CN(c1cc(C(F)(F)F)nc(OCCC(=O)O)n1)c1cccc2c1CCC2 and give its measured Population Healthy Nuclei (%).
83

Consider the compound CN1C(=O)[C@@H](NC(=O)c2cc3ccccc3[nH]2)N=C(c2ccccc2)c2ccccc21 [DEVAZEPIDE] and give its measured Population Healthy Nuclei (%).
44

Consider the compound CCCCN(CC)c1nc(C)nc2c1c(C)cn2-c1c(C)cc(C)cc1C.Cl and give its measured Population Healthy Nuclei (%).
74

We now examine a further compound.
Consider the compound c1ccc(-c2oc3ncnc(NC[C@@H]4CCCO4)c3c2-c2ccccc2)cc1 and give its measured Population Healthy Nuclei (%).
64

---

# Tested on: U2OS
# EXPERIMENT_DESCRIPTION: Multiplex assay against U2OS
# Format: toxicity, cell-based
# MEASUREMENT_CONDITIONS: human, 48 h, 10 µM, compound concentration 10 uM, replicate 2
Short version: Population Fragmented Nuclei (%) at least 20% is 1.0, less is 0.0.

Solved cases (3 shown):
Tell me whether Population Fragmented Nuclei (%) is at least 20% here: CN1CCN(Cc2ccc(-c3cnc4[nH]cc(-c5ccc6[nH]ccc6c5)c4c3)cc2)CC1
0.0

Tell me whether Population Fragmented Nuclei (%) is at least 20% here: CCCCN(CC)c1nc(C)nc2c1c(C)cn2-c1c(C)cc(C)cc1C.Cl
0.0

Tell me whether Population Fragmented Nuclei (%) is at least 20% here: c1ccc(-c2oc3ncnc(NC[C@@H]4CCCO4)c3c2-c2ccccc2)cc1
0.0

New cases:
Tell me whether Population Fragmented Nuclei (%) is at least 20% here: CCCc1cc(C)[nH]c(=O)c1CNC(=O)c1cc(-c2ccc(N3CCN(C(C)C)CC3)nc2)cc2c1cnn2C(C)C
0.0

Tell me whether Population Fragmented Nuclei (%) is at least 20% here: CN1C(=O)[C@@H](NC(=O)c2cc3ccccc3[nH]2)N=C(c2ccccc2)c2ccccc21 [DEVAZEPIDE]
1.0

Tell me whether Population Fragmented Nuclei (%) is at least 20% here: C=CC(=O)Nc1cc(-n2c(=O)ccc3cnc4ccc(-c5ccc(NS(C)(=O)=O)cc5)cc4c32)ccc1C
0.0

Tell me whether Population Fragmented Nuclei (%) is at least 20% here: Cl.NC[C@@H]1O[C@H](C23CC4CC(CC(C4)C2)C3)Cc2c1ccc(O)c2O
1.0

---

# Tested on: U2OS
# EXPERIMENT_DESCRIPTION: Multiplex assay against U2OS
# Assay type: toxicity, cell-based
# MEASUREMENT_CONDITIONS: human, 24 h, 10 µM, compound concentration 10 uM, replicate 2
Please provide measured Population Membrane Permeable-Phenotype (%) for the entries that follow.
Give bare numbers, in %.

List Population Membrane Permeable-Phenotype (%) for every entry below, keeping the order given.
1. CC[C@@]1(O)C(=O)OCc2c1cc1n(c2=O)Cc2cc3ccccc3nc2-1
2. CCCCN(CC)c1nc(C)nc2c1c(C)cn2-c1c(C)cc(C)cc1C.Cl
3. c1ccc(-c2oc3ncnc(NC[C@@H]4CCCO4)c3c2-c2ccccc2)cc1
4. CC(C)c1cc(Nc2nc(N3CCC[C@H](N)C3)ncc2C(N)=O)cc(C(C)C)n1
5. Cc1ccc(S(=O)(=O)NC2c3ccccc3Oc3ccccc32)cc1
6. N#CCNC(=O)c1ccc(-c2ccnc(Nc3ccc(N4CCOCC4)cc3)n2)cc1
7. CCCc1cc(C)[nH]c(=O)c1CNC(=O)c1cc(-c2ccc(N3CCN(C(C)C)CC3)nc2)cc2c1cnn2C(C)C

17
3
21
100
20
28
85

---

# Test system: HEK-293T
# EXPERIMENT_DESCRIPTION: Multiplex assay against HEK293T
# Format: toxicity, cell-based
# MEASUREMENT_CONDITIONS: human, 24 h, 1 µM, compound concentration 1 uM, replicate 1
MEASUREMENT_TYPE: Population Mitochondria Different-Phenotype (%)
Give bare numbers, in %.

Reference set, count: 3
Consider the compound CC(C)C[C@H](NC(=O)[C@H](Cc1ccccc1)NC(=O)CNC(=O)CNC(=O)[C@@H](N)Cc1ccc(O)cc1)C(=O)O and give its measured Population Mitochondria Different-Phenotype (%).
41

Consider the compound C=CC(=O)Nc1cc(-n2c(=O)ccc3cnc4ccc(-c5ccc(NS(C)(=O)=O)cc5)cc4c32)ccc1C and give its measured Population Mitochondria Different-Phenotype (%).
62

Consider the compound Cl.NC[C@@H]1O[C@H](C23CC4CC(CC(C4)C2)C3)Cc2c1ccc(O)c2O and give its measured Population Mitochondria Different-Phenotype (%).
46

We now examine a further compound.
Consider the compound CN(c1cc(C(F)(F)F)nc(OCCC(=O)O)n1)c1cccc2c1CCC2 and give its measured Population Mitochondria Different-Phenotype (%).
53
